These data points were gathered from patent US10597405B2.

pIC50 listing for selected compounds.
target: KRasG12C (Homo sapiens, UniProt P01116, G12C); construct: biotin (biotinylated); assay: KRasG12C functional assay (HTRF nucleotide exchange / Raf RBD binding); details: GDP loaded biotinylated KRasG12C, samples incubated 4 hrs, FRET readout; single experiment or average of two or more
Just so you know, pIC50 here is -log10 of the concentration in molar units; reply with that number alone.

Known results for compounds:
# COMPOUND, RESULT_NUMBER
rows = [
    ("C=CC(=O)N1CCN2c3c(cnc4cc(-c5c(O)cccc5F)c(Cl)c(OC)c34)OC[C@H]2C1", 6.59),
    ("C=CC(=O)N1CCN2c3c(cnc4cc(-c5c(C)ccc6[nH]ncc56)c(Cl)cc34)OC[C@H]2C1 (single isomer, unassigned) [Example 4]", 5.77),
    ("C=CC(=O)N1CCN2c3c(cnc4c(OC)c(-c5c(O)cccc5F)c(Cl)cc34)OC[C@H]2C1 (single isomer, unassigned) [Compound 23]", 5.38),
    ("C=CC(=O)N1CCN2c3c(cnc4c(F)c(-c5c(C)ccc6[nH]c(=O)n(C)c56)c(Cl)cc34)OC[C@H]2C1 (single isomer, unassigned) [Compound 84]", 5.62),
    ("C=CC(=O)N1CCN2c3c(cnc4c(Cl)c(-c5c(O)cccc5F)c(F)cc34)N(C)C(=O)[C@H]2C1 (single isomer, unassigned) [Compound 80]", 4.83),
]

Task item: Return pIC50 measured with KRasG12C (Homo sapiens, UniProt P01116, G12C) given this compound: C=CC(=O)N1CCN2c3c(cnc4cc(-c5c(F)ccc6cc[nH]c(=O)c56)c(Cl)cc34)OC[C@H]2C1 (single isomer, unassigned) [Compound 45]
Reply: 7.59

----------
molecular target: KRasG12C (Homo sapiens, UniProt P01116, G12C); construct: biotin (biotinylated); made in house; experiment: KRasG12C functional assay (HTRF nucleotide exchange / Raf RBD binding); type: biochemical; settings: GDP loaded biotinylated KRasG12C, samples incubated 4 hrs, FRET readout; single experiment or average of two or more
pIC50: −log10 of the molar value.
Label Condition met when pIC50 is at or above 7; anything below gets Condition not met.

# MOLECULE, GROUP
rows = [
    ("C=CC(=O)N1CCN2c3c(cnc4cc(-c5c(O)cccc5F)c(Cl)cc34)N(C)C(=O)C2(C)C1 (single isomer, unassigned) [Compound 33]", "Condition not met"),
    ("C=CC(=O)N1C[C@@H]2C(=O)Nc3cnc4c(F)c(-c5c(O)cccc5F)c(Cl)cc4c3N2C[C@H]1C (single isomer, unassigned) [Compound 30]", "Condition not met"),
    ("CN(C)C/C=C/C(=O)N1CCN2c3c(cnc4cc(-c5c(O)cccc5F)c(Cl)cc34)OC[C@H]2C1", "Condition not met"),
    ("C=CC(=O)N1C[C@@H]2C(=O)N(C)c3cnc4c(F)c(-c5c(O)cccc5F)c(Cl)cc4c3N2C[C@H]1C (single isomer, unassigned) [Example 22]", "Condition met"),
    ("C=CC(=O)N1CCN2c3c(cnc4c(F)c(-c5c(C)ccc6[nH]c(=O)n(C)c56)c(Cl)cc34)OC[C@H]2C1 (single isomer, unassigned) [Compound 85]", "Condition met"),
]

Task item: Decide: pIC50 of C=CC(=O)N1CCN2c3c(cnc4c(F)c(-c5c(O)cccc5F)c(Cl)cc34)N(C)C(=O)[C@H]2C1 (single isomer, unassigned) >= 7?
Reply: Condition met

Task item: Decide: pIC50 of C=CC(=O)N1C[C@@H]2COc3cnc4cc(-c5c(O)cccc5F)c(Cl)cc4c3N2C[C@H]1C >= 7?
Reply: Condition met

Task item: Decide: pIC50 of C=CC(=O)N1CCN2c3c(cnc4c(F)c(-c5c(O)ccc6ccccc56)c(Cl)cc34)N(C)C(=O)[C@H]2C1 (single isomer, unassigned) [Compound 56] >= 7?
Reply: Condition met

----------
target: KRasG12C (Homo sapiens, UniProt P01116, G12C); construct: biotin (biotinylated); made in house; test: KRasG12C Mass Spectrometry adducting assay; assay type: binding; details: 10 μM test compound, 4 μM KRasG12C, 4 hours reaction; single experiment or average of two or more
MEASUREMENT_LABEL: KRasG12C M.S. Binding Mean adduct % (%)
Kindly answer with a numeric value in %, unit omitted.

# COMPOUND, MEASUREMENT_LABEL, RESULT_NUMBER
rows = [
    ("C=CC(=O)N1CCN2c3c(cnc4c(C)c(-c5c(O)cccc5F)c(C)nc34)N(C)C(=O)[C@H]2C1 (single isomer, unassigned) [Compound 92]", "KRasG12C M.S. Binding Mean adduct %", 97),
    ("C=CC(=O)N1CCN2c3c(cnc4cc(-c5c(O)cccc5F)c(Cl)cc34)N(C)C(=O)[C@@H]2C1 [Example 16]", "KRasG12C M.S. Binding Mean adduct %", 18),
]

Okay, next one:
Task item: If you can, please state the reported KRasG12C M.S. Binding Mean adduct % value of C=CC(=O)N1CCN2c3c(cnc4cc(-c5c(C)ccc6[nH]ncc56)c(Cl)cc34)OC[C@H]2C1 (single isomer, unassigned) [Example 3] .
Reply: 93

----------
pIC50 listing for selected compounds.
molecular target: KRasG12C (Homo sapiens, UniProt P01116, G12C); construct: biotin (biotinylated); test: KRasG12C functional assay (HTRF nucleotide exchange / Raf RBD binding); conditions: GDP loaded biotinylated KRasG12C, samples incubated 4 hrs, FRET readout; single experiment or average of two or more
Just so you know, pIC50 here is -log10 of the concentration in molar units; reply with that number alone.

Known results for compounds:
# COMPOUND, MEASUREMENT_LABEL, RESULT_NUMBER
rows = [
    ("C=CC(=O)N1CCN2c3c(cnc4cc(-c5c(O)cccc5F)c(Cl)cc34)NC[C@H]2C1", "pIC50", 6.41),
    ("C=CC(=O)N1CCN2c3c(cnc4cc(-c5c(C)ccc6[nH]cnc56)c(Cl)cc34)OC[C@H]2C1 (single isomer, unassigned) [Compound 65]", "pIC50", 7.33),
]

Okay, next one:
Task item: If you can, please state the reported pIC50 value of C=CC(=O)N1CCN2c3c(cnc4c(F)c(-c5c(O)ccc(F)c5F)c(Cl)cc34)N(C)C(=O)[C@H]2C1 (single isomer, unassigned) [Compound 58] .
Reply: 7.70

----------
IC50 listing for selected compounds.
target: KRasG12C (Homo sapiens, UniProt P01116, G12C); construct: biotin (biotinylated); experiment: KRasG12C functional assay (HTRF nucleotide exchange / Raf RBD binding); conditions: GDP loaded biotinylated KRasG12C, samples incubated 4 hrs, FRET readout; single experiment or average of two or more
Kindly answer with a numeric value in nM, unit omitted.

Known results for compounds:
# COMPOUND, MEASUREMENT_LABEL, RESULT_NUMBER
data = [
    ("C=CC(=O)N1CCN2c3c(cnc4cc(-c5c(O)cccc5F)c(Cl)c(F)c34)N(C)C(=O)[C@H]2C1", "IC50", 202),
    ("C=CC(=O)N1C[C@@H]2C(=O)N(C)c3cnc4c(F)c(-c5c(C)ccc6[nH]cnc56)c(Cl)cc4c3N2C[C@H]1C (single isomer, unassigned) [Compound 28]", "IC50", 3),
    ("C=CC(=O)N1CCN2c3c(cnc4cc(-c5c(C)ccc6cc[nH]c(=O)c56)c(Cl)cc34)OC[C@H]2C1 (single isomer, unassigned) [Compound 69]", "IC50", 2700),
    ("C=CC(=O)N1C[C@@H]2COc3cnc4c(F)c(-c5c(O)cccc5F)c(F)cc4c3N2C[C@H]1C (single isomer, unassigned) [Compound 64]", "IC50", 20),
    ("C#Cc1cc2c3c(cnc2cc1-c1c(C)ccc2[nH]ncc12)OC[C@H]1CN(C(=O)C=C)CCN31 (single isomer, unassigned) [Compound 76]", "IC50", 931),
]

Okay, next one:
Task item: If you can, please state the reported IC50 value of C=CC(=O)N1CCN2c3c(cnc4c(C)c(-c5c(O)cccc5F)c(Cl)cc34)OC[C@H]2C1 (single isomer, unassigned) [Compound 39] .
Reply: 97

----------
Biological target: KRasG12C (Homo sapiens, UniProt P01116, G12C)
Construct: biotin (biotinylated)
Experiment: KRasG12C functional assay (HTRF nucleotide exchange / Raf RBD binding)
Conditions: GDP loaded biotinylated KRasG12C, samples incubated 4 hrs, FRET readout; single experiment or average of two or more
Method: KRasG12C Functional Assay All enzyme and substrate solutions were prepared in assay buffer containing 20 mM HEPES (pH 7.5), 5 mM MgCl2, 150 mM NaCl, and 0.01% Tween 20. […] This is detected simultaneously via the specific binding interaction between active GTPγS KRas^G12C with GST-Raf RBD which brings the europium and XL665 into close proximity enabling an increased FRET signal to be detected on a Pherastar (BMG) plate reader equipped with the HTRF filter module. […]
IC50 listing for selected molecules.
Kindly answer with a numeric value in nM, unit omitted.

# MOLECULE, RESULT_NUMBER
records = [
    ("C=CC(=O)N1CCN2c3c(cnc4cc(-c5c(C)ccc6[nH]ncc56)c(Cl)cc34)OC[C@H]2C1 (single isomer, unassigned) [Example 3]", 81),
    ("C=CC(=O)N1CCN2c3c(cnc4cc(-c5c(C)ccc6[nH]c(=O)[nH]c56)c(Cl)cc34)OC[C@H]2C1 (single isomer, unassigned) [Compound 72]", 8300),
]

Task item: If you can, please state the reported IC50 value of C=CC(=O)N1C[C@@H]2COc3cnc4c(C)c(-c5c(O)cccc5F)c(Cl)cc4c3N2C[C@H]1C (single isomer, unassigned) [Compound 40] .
Reply: 62

Task item: If you can, please state the reported IC50 value of C=CC(=O)N1CCN2c3c(cnc4c(F)c(-c5c(O)cccc5F)c(F)cc34)N(C)C(=O)[C@H]2C1 [Compound 42] .
Reply: 77

Task item: If you can, please state the reported IC50 value of C=CC(=O)N1CCN2c3c(cnc4c(F)c(-c5c(O)cccc5F)c(Cl)cc34)OC[C@H]2C1 (single isomer, unassigned) [Example 8] .
Reply: 8500

Task item: If you can, please state the reported IC50 value of C=CC(=O)N1CCN2c3c(cnc4c(F)c(-c5c(C)cccc5O)c(Cl)cc34)N(C)C(=O)[C@H]2C1 (single isomer, unassigned) [Compound 53] .
Reply: 37600

Task item: If you can, please state the reported IC50 value of C[C@@H]1CN2c3c(cnc4c(F)c(-c5c(O)cccc5F)c(Cl)cc34)OC[C@H]2CN1C(=O)/C=C/CN(C)C (single isomer, unassigned) [Compound 37] .
Reply: 21

Task item: If you can, please state the reported IC50 value of C=CC(=O)N1CCN2c3c(cnc4c(F)c(-c5c(O)cccc5F)c(Cl)cc34)OC[C@H]2C1 (single isomer, unassigned) [Example 7] .
Reply: 20
